Where these numbers come from: patent US9751932B2

assay system: T1, human big-ET-1 (SEQ ID NO:434) (Homo sapiens, UniProt P05305)
T1 sequence (P05305 53-90 limits assumed): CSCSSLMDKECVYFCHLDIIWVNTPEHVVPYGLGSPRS
assay overview: Surface plasmon resonance (Biacore) binding, mAb capture format, 37° C.
study conditions: analyte human big-ET-1, mAb capture
measurement name: ka (M/s)
Reply numerically in M/s, unit not repeated.

response.value for H4H6353P: anti-big-ET-1 antibody, human IgG4 Fc; HCVR/LCVR SEQ ID NO: 386/394 (antibody, V domains shown, human IgG4 Fc) VH: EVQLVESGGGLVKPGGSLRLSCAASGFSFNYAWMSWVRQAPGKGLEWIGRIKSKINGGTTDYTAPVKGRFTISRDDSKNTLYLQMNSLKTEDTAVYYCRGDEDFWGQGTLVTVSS VL: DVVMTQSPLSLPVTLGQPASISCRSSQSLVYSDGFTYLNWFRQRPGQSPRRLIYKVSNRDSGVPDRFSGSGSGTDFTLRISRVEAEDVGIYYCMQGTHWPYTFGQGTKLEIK (field: ka) = 1.14e+06
